Provenance of the data: the supplement of paper PMC10126150

# System: ATP;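 also: ATP exposure 15 min at 22 °C before imaging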
# Protocol summary: switch fluorescence ratio, 500 uM ATP over buffer (Cy3 cluster intensity, sum of 5 cycles each) (fold (ratio)); higher = stronger signal-on switching upon ATP binding; sequences stand for … in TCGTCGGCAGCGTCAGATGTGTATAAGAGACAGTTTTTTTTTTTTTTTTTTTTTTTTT…TC
# Details: aptamer strand: ATP DNA aptamer (quencher-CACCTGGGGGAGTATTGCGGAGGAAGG + anchor), 100 nM annealed; ATP concentration: 500 uM
Quantity: switch fluorescence ratio
Give your answer as a number; write no unit.

GAAGTTGCGA 0.984

Exercise: # lookup: switch fluorescence ratio of ACATTGTACG
Solution: 1.09

Exercise: What do you have for GGATTAAGGG ?
Solution: 0.993

Exercise: Follow-up entry: ATTGGGGCGC
Solution: 0.991

Exercise: Same lookup for AATGTGGTAA , please.
Solution: 0.959

* * *

# Tested on: ATP;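 also: ATP exposure 15 min at 22 °C before imaging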
# Protocol summary: switch fluorescence ratio, 500 uM ATP over buffer (Cy3 cluster intensity, sum of 5 cycles each) (fold (ratio)); higher = stronger signal-on switching upon ATP binding; sequences stand for … in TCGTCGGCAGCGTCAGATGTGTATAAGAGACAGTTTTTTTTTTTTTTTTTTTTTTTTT…TC
# Details: aptamer strand: ATP DNA aptamer (quencher-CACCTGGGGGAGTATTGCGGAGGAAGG + anchor), 100 nM annealed; ATP concentration: 500 uM
# maps each entry to its switch fluorescence ratio
Simply state the number, no unit and no words.

GTGGAGACGG 0.988
GGTCATGACG 0.923
CGTTAGTCGT 0.981
GTTGGGGGGC 0.992
AGAACGGCCT 1.01

Exercise: // query switch fluorescence ratio value for entry GGAGGCGTTT
Solution: 0.996

Exercise: Same lookup for AGTTTTGGAG , please.
Solution: 1

Exercise: Now this one: TGCTTTGGGG
Solution: 0.982

Exercise: Similarly, CATTGGTAAT ?
Solution: 1.02

Exercise: Entry TTTCGGCCAG please
Solution: 1.13

Exercise: Likewise for AAACTTTGTT ?
Solution: 1.02

Exercise: Then what about the sequence TTATGTCCGG ?
Solution: 1.02

Exercise: And ATAAACAAAG ?
Solution: 0.959

Exercise: And the next one, TATGTGTGTT ?
Solution: 0.987

Exercise: // next record GCATGGAGTA
Solution: 1.02

Exercise: # repeat for GAGGGGAGAG
Solution: 1

Exercise: Follow-up entry: GCGGGAATGA
Solution: 1

* * *

# Test system: ATP;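 also: ATP exposure 15 min at 22 °C before imaging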
# Protocol summary: switch fluorescence ratio, 500 uM ATP over buffer (Cy3 cluster intensity, sum of 5 cycles each) (fold (ratio)); higher = stronger signal-on switching upon ATP binding; sequences stand for … in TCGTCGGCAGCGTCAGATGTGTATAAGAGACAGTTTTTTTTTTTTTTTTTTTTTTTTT…TC
# Details: aptamer strand: ATP DNA aptamer (quencher-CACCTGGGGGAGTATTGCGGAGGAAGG + anchor), 100 nM annealed; ATP concentration: 500 uM
The threshold is inclusive: switch fluorescence ratio of exactly 1 counts as yes; values below receive no.

Solved entries:
ACTTGCACTT yes
GAGTTCTTAG no

Exercise: Is it the case that GCGGGAGATG has switch fluorescence ratio reaching or exceeding 1?
Solution: yes

Exercise: Again, but for TTTTTCAGGC
Solution: no

Exercise: TCTGAACAGG ?
Solution: yes

Exercise: How about TGAGATCCCT ?
Solution: yes

Exercise: Try this sequence next: TGAGCGGCAA
Solution: yes

Exercise: Same lookup for TTTTGTATCG , please.
Solution: no
